// data source = paper PMC11402776

SYSTEM NAME: cell lysate PK (RKO) (Homo sapiens, UniProt P14618)
Sequence (P14618 2-531): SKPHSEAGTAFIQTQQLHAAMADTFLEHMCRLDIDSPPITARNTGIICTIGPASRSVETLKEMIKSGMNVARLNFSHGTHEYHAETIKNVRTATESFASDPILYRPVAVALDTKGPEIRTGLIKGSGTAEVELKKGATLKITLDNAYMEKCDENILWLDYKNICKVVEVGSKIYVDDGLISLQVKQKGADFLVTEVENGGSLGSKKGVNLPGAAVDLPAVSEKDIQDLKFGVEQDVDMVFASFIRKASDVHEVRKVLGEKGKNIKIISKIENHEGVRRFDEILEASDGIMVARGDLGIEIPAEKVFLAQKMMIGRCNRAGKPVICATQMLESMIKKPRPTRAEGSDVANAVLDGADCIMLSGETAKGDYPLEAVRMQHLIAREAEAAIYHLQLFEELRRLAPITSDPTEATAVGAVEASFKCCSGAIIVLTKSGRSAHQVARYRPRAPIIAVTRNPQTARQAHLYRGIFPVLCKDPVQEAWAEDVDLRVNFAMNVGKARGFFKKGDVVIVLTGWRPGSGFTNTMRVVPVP
TEST DESCRIPTION: PK activity assay, RKO cell lysate
Type: biochemical
TEST PARAMETERS: read-out: AC50FBP, with AIM
OBSERVATION TYPE: EC50 (nM)
Express the result in nM but write the number alone.

EC50 reading for O=C(COP(=O)(O)O)[C@@H](O)[C@H](O)[C@H](O)COP(=O)(O)O [FBP] : 1070

----------
SYSTEM NAME: cell lysate PK (RKO) (Homo sapiens)
TEST DESCRIPTION: PK activity assay, RKO cell lysate
Assay type: biochemical
TEST PARAMETERS: read-out: AC50FBP, Control (without AIM)
OBSERVATION TYPE: EC50

EC50 reading for O=C(COP(=O)(O)O)[C@@H](O)[C@H](O)[C@H](O)COP(=O)(O)O : 0.0672 µM
